- Test system: HEK293 cells
- protocol-conditions: HEK293, glo, 8 hrs, mean and SD, n=136
experimental-readout: IC50 (µM)
State just the number; it will be interpreted in µM.

Problem: Item: CCCCCCCC[N+](CCCCCCCC)(CCCCCCCC)CCCCCCCC [tetra-N-octylammonium bromide, reference compound] Test system: HEK293 cells Read-out: IC50 Value: ?
Result: 5.91

----------
- Tested on: HEK293 cells
- protocol-conditions: HEK293, glo, 40 hrs, mean and SD, n=136
experimental-readout: pIC50
Reminder that pIC50 means the negative base-10 logarithm of the concentration expressed in mol/L.

Problem: What does the record list as pIC50 for CCCCCCCC[N+](CCCCCCCC)(CCCCCCCC)CCCCCCCC [tetra-N-octylammonium bromide, reference compound] ?
Result: 6.10

----------
- Tested on: HEK293 cells
- protocol-conditions: HEK293 glo
hek293_glo_time values by entry
Format: numeric value only, no unit, no commentary.

Record excerpt, results attached:
[[record]]
compound = "CC(C)=CCC/C(C)=C/CO"
obs_value = 48

[[record]]
compound = "CN(C)c1ccc(C(=C2C=CC(=[N+](C)C)C=C2)c2ccccc2)cc1.CN(C)c1ccc(C(=C2C=CC(=[N+](C)C)C=C2)c2ccccc2)cc1.O=C(O)C(=O)O.O=C([O-])C(=O)O.O=C([O-])C(=O)O [Malachite green oxalate]"
obs_value = 8

[[record]]
compound = "O=C(O)c1ccccc1O.Oc1cccc2cccnc12"
obs_value = 48

[[record]]
compound = "O=S1(=O)OC(c2ccc(O)cc2)(c2ccc(O)cc2)c2ccccc21"
obs_value = 40


Problem: What does the record list as hek293_glo_time for Cc1cc(N)c2cc(NC(=O)Nc3ccc4nc(C)cc(N)c4c3)ccc2n1.Cl.Cl [Aminoquinuride dihydrochloride] ?
Result: 48

----------
- System: HepG2 cells
- protocol: CellTox Green Cytotoxicity Assay (flor) in HepG2, HepG2[flor]
- Format: cell-based, human
- protocol-conditions: HepG2 flor
experimental-readout: hepg2_flor_time

[[record]]
compound = "CN(C)c1ccc(C(=C2C=CC(=[N+](C)C)C=C2)c2ccccc2)cc1.CN(C)c1ccc(C(=C2C=CC(=[N+](C)C)C=C2)c2ccccc2)cc1.O=C(O)C(=O)O.O=C([O-])C(=O)O.O=C([O-])C(=O)O [Malachite green oxalate]"
target_desc = "HepG2 cells"
experimental_readout = "hepg2_flor_time"
obs_value = 8

[[record]]
compound = "Cc1cc(N)c2cc(NC(=O)Nc3ccc4nc(C)cc(N)c4c3)ccc2n1.Cl.Cl [Aminoquinuride dihydrochloride]"
target_desc = "HepG2 cells"
experimental_readout = "hepg2_flor_time"
obs_value = 48

[[record]]
compound = "O=S1(=O)OC(c2ccc(O)cc2)(c2ccc(O)cc2)c2ccccc21"
target_desc = "HepG2 cells"
experimental_readout = "hepg2_flor_time"
obs_value = 48

[[record]]
compound = "O=C(O)c1ccccc1O.Oc1cccc2cccnc12"
target_desc = "HepG2 cells"
experimental_readout = "hepg2_flor_time"
obs_value = 48


Lab note: next compound to report on.
Problem: What does the record list as hepg2_flor_time for `CC(C)=CCC/C(C)=C/CO` ?
Result: 48

----------
- Test system: HepG2 cells
- protocol: CellTox Green Cytotoxicity Assay (flor) in HepG2, HepG2[flor]
- Type: cell-based, human
- protocol-conditions: Homo sapiens; HepG2 flor, time point 0; given as negative log-scale values; read-out: hepg2_flor_ec50_0
EC50 values by entry

[[record]]
molecule = "CC(C)=CCC/C(C)=C/CO [Geraniol]"
target_desc = "HepG2 cells"
obs_value = "> 38.3 µM"


Lab note: next molecule to report on.
Problem: What does the record list as EC50 for O=S1(=O)OC(c2ccc(O)cc2)(c2ccc(O)cc2)c2ccccc21 [Phenol red] ?
Result: > 38.3 µM

----------
- Tested on: HEK293 cells
- protocol-conditions: HEK293 glo, time point 8
hek293_glo_pod_8 values by entry
Format: numeric value only, no unit, no commentary.

Record excerpt, results attached:
[[record]]
molecule = "Cc1cc(N)c2cc(NC(=O)Nc3ccc4nc(C)cc(N)c4c3)ccc2n1.Cl.Cl [Aminoquinuride dihydrochloride]"
obs_value = -4.417

[[record]]
molecule = "O=C(O)c1ccccc1O.Oc1cccc2cccnc12"
obs_value = -4.417

[[record]]
molecule = "CN(C)c1ccc(C(=C2C=CC(=[N+](C)C)C=C2)c2ccccc2)cc1.CN(C)c1ccc(C(=C2C=CC(=[N+](C)C)C=C2)c2ccccc2)cc1.O=C(O)C(=O)O.O=C([O-])C(=O)O.O=C([O-])C(=O)O [Malachite green oxalate]"
obs_value = -5.267

[[record]]
molecule = "CC(C)=CCC/C(C)=C/CO"
obs_value = -4.417


Lab note: next molecule to report on.
Problem: What does the record list as hek293_glo_pod_8 for `O=S1(=O)OC(c2ccc(O)cc2)(c2ccc(O)cc2)c2ccccc21` ?
Result: -4.452

----------
- Test system: HEK293 cells
- protocol-conditions: HEK293 glo
hek293_glo_auc values by entry
Format: numeric value only, no unit, no commentary.

[[record]]
compound = "O=S1(=O)OC(c2ccc(O)cc2)(c2ccc(O)cc2)c2ccccc21"
target_desc = "HEK293 cells"
experimental_readout = "hek293_glo_auc"
obs_value = 1.203

[[record]]
compound = "CN(C)c1ccc(C(=C2C=CC(=[N+](C)C)C=C2)c2ccccc2)cc1.CN(C)c1ccc(C(=C2C=CC(=[N+](C)C)C=C2)c2ccccc2)cc1.O=C(O)C(=O)O.O=C([O-])C(=O)O.O=C([O-])C(=O)O [Malachite green oxalate]"
target_desc = "HEK293 cells"
experimental_readout = "hek293_glo_auc"
obs_value = 1.897

[[record]]
compound = "CC(C)=CCC/C(C)=C/CO"
target_desc = "HEK293 cells"
experimental_readout = "hek293_glo_auc"
obs_value = 0

[[record]]
compound = "O=C(O)c1ccccc1O.Oc1cccc2cccnc12"
target_desc = "HEK293 cells"
experimental_readout = "hek293_glo_auc"
obs_value = 0


Lab note: next compound to report on.
Problem: What does the record list as hek293_glo_auc for Cc1cc(N)c2cc(NC(=O)Nc3ccc4nc(C)cc(N)c4c3)ccc2n1.Cl.Cl [Aminoquinuride dihydrochloride] ?
Result: 0

----------
hepg2_glo_time values by entry
- Tested on: HepG2 cells
- protocol-conditions: HepG2 glo
Format: numeric value only, no unit, no commentary.

[[record]]
compound = "O=C(O)c1ccccc1O.Oc1cccc2cccnc12"
target_desc = "HepG2 cells"
obs_value = 48

[[record]]
compound = "Cc1cc(N)c2cc(NC(=O)Nc3ccc4nc(C)cc(N)c4c3)ccc2n1.Cl.Cl [Aminoquinuride dihydrochloride]"
target_desc = "HepG2 cells"
obs_value = 48

[[record]]
compound = "CN(C)c1ccc(C(=C2C=CC(=[N+](C)C)C=C2)c2ccccc2)cc1.CN(C)c1ccc(C(=C2C=CC(=[N+](C)C)C=C2)c2ccccc2)cc1.O=C(O)C(=O)O.O=C([O-])C(=O)O.O=C([O-])C(=O)O [Malachite green oxalate]"
target_desc = "HepG2 cells"
obs_value = 0


Problem: What does the record list as hepg2_glo_time for `CC(C)=CCC/C(C)=C/CO` ?
Result: 48

----------
- Tested on: HepG2 cells
- protocol-conditions: HepG2 glo, time point 32
experimental-readout: hepg2_glo_wauc_32

Record excerpt, results attached:
[[record]]
compound = "Cc1cc(N)c2cc(NC(=O)Nc3ccc4nc(C)cc(N)c4c3)ccc2n1.Cl.Cl [Aminoquinuride dihydrochloride]"
obs_value = 0

[[record]]
compound = "O=C(O)c1ccccc1O.Oc1cccc2cccnc12"
obs_value = 0

[[record]]
compound = "CC(C)=CCC/C(C)=C/CO"
obs_value = 0


Problem: What does the record list as hepg2_glo_wauc_32 for `O=S1(=O)OC(c2ccc(O)cc2)(c2ccc(O)cc2)c2ccccc21` ?
Result: 0

Problem: What does the record list as hepg2_glo_wauc_32 for CN(C)c1ccc(C(=C2C=CC(=[N+](C)C)C=C2)c2ccccc2)cc1.CN(C)c1ccc(C(=C2C=CC(=[N+](C)C)C=C2)c2ccccc2)cc1.O=C(O)C(=O)O.O=C([O-])C(=O)O.O=C([O-])C(=O)O [Malachite green oxalate] ?
Result: 2.064

----------
hepg2_flor_emax_16 values by entry
- Test system: HepG2 cells
- protocol: CellTox Green Cytotoxicity Assay (flor) in HepG2, HepG2[flor]
- Format: cell-based, human
- protocol-conditions: HepG2 flor, time point 16
Format: numeric value only, no unit, no commentary.

Record excerpt, results attached:
[[record]]
molecule = "CC(C)=CCC/C(C)=C/CO [Geraniol]"
obs_value = 0

[[record]]
molecule = "Cc1cc(N)c2cc(NC(=O)Nc3ccc4nc(C)cc(N)c4c3)ccc2n1.Cl.Cl [Aminoquinuride dihydrochloride]"
obs_value = 0

[[record]]
molecule = "O=S1(=O)OC(c2ccc(O)cc2)(c2ccc(O)cc2)c2ccccc21 [Phenol red]"
obs_value = 0

[[record]]
molecule = "O=C(O)c1ccccc1O.Oc1cccc2cccnc12 [8-Quinolinol Salicylic acid (1:1)]"
obs_value = 0


Lab note: next molecule to report on.
Problem: What does the record list as hepg2_flor_emax_16 for CN(C)c1ccc(C(=C2C=CC(=[N+](C)C)C=C2)c2ccccc2)cc1.CN(C)c1ccc(C(=C2C=CC(=[N+](C)C)C=C2)c2ccccc2)cc1.O=C(O)C(=O)O.O=C([O-])C(=O)O.O=C([O-])C(=O)O [Malachite green oxalate] ?
Result: 142.047
